Catalogue of protein stability index readings, one per entry.
B1: C1orf55 (parent)
chain: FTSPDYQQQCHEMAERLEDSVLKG

Variants of: B1
run.description: protein stability index of a GFP-peptide fusion (GPS, HEK-293T) (PSI 1-6); higher = more stable;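 also: lentivirally expressed fusions sorted by FACS into six bins by GFP to DsRed ratio, PSI derived from sequencing read proportions per bin multiplied by bin number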
condition.context: c terminus: a fixed tail appended
reported.property: protein stability index

INSERT INTO assay_data (mutation_key, reported_property, quantitative_result) VALUES
  ('H11E', 'protein stability index', 2.95),
  ('S20L', 'protein stability index', 2.93),
  ('Q9W', 'protein stability index', 2.98),
  ('L22H', 'protein stability index', 2.05),
  ('K23Y', 'protein stability index', 1.99);
